Experiment: in vitro
Details: human, hela cells, % viability
Below, each of the molecules is paired with its reported viability at 28.5 h, 10 µM value.
Supply the numeric figure in %, leaving out any unit text.

Consider the reported viability at 28.5 h, 10 µM for these molecules:
1. Cc1cc(Br)ccc1C(=O)Nc1ccc2cc[nH]c2c1 : 84.1
2. N#Cc1cccc(-n2cc(-c3ccc(Br)cc3F)nn2)c1 : 95.4
3. COc1ccc(C2=NN(c3ccc(C(=O)O)cc3)C(c3ccc(OC)c(OC)c3)C2)cc1 (centres unmarked) : 111
4. O=C1CC2(CCN(C(=O)C3CCCC3)CC2)Oc2ccccc21 : 94.9

// switching to the query molecule
CC(=O)c1sccc1NS(=O)(=O)c1ccccc1 has a reported viability at 28.5 h, 10 µM of 92.5

---

Test: in vitro
Conditions: human, hela cells, % viability
Below, each of the compounds is paired with its reported viability at 28.5 h, 10 µM value.
Supply the numeric figure in %, leaving out any unit text.

Consider the reported viability at 28.5 h, 10 µM for these compounds:
1. CCNS(=O)(=O)c1ccc(NS(=O)(=O)Cc2ccccc2)cc1 : 100
2. COc1cc(/C=C2/NC(=O)N(c3cccc(Cl)c3)C2=O)ccc1OCC(=O)Nc1ccc(F)cc1 : 93
3. O=c1n(Cc2ccccn2)c2cccnc2n1Cc1cccs1 : 90.2

CCN(CC)CCN1CCN(c2cc(-c3ccc4c(c3)OCO4)ncn2)CC1 has a reported viability at 28.5 h, 10 µM of 86

O=C(O)c1ccc(Br)c(S(=O)(=O)NCc2ccccc2)c1 has a reported viability at 28.5 h, 10 µM of 90.8

Fc1ccc(-c2n[nH]c(=S)n2CCCN2CCOCC2)cc1 has a reported viability at 28.5 h, 10 µM of 100

CCCC(=O)c1ccc(S(=O)(=O)N2CCN(Cc3ccc4cccc(O)c4n3)CC2)cc1 has a reported viability at 28.5 h, 10 µM of 102

COc1cc(NC(=O)NC(=O)C2CCN(C(C)=O)CC2)cc(OC)c1OC has a reported viability at 28.5 h, 10 µM of 114

CC(NC(=O)N1CCc2ccccc2C1)c1ccccc1 (stereo not drawn) has a reported viability at 28.5 h, 10 µM of 102

---

Below, each of the compounds is paired with its reported viability at 28.5 h, 10 µM value.
Test: in vitro
Conditions: human, hela cells, % viability
Supply the numeric figure in %, leaving out any unit text.

1) O=C(NCCn1cccn1)N1CCCN(Cc2ccncc2)CC1 [CBK307129] : 90.1
2) Nc1nc2c(s1)c(O)nc(=O)n2Cc1ccccc1 [CBK291257] : 88.6
3) CCCCn1cc(CN2CC3CCCN3C[C@H]2C)c(C)n1 (some centres unmarked) [CBK285433] : 92.9
4) Cn1nnnc1SCC(=O)Nc1cccc2nsnc12 [CBK268973] : 101

// switching to the query compound
Cc1ccc(S(=O)(=O)N(CC(=O)Nc2cccnc2)c2cc(C)ccc2C)cc1 [CBK264115] has a reported viability at 28.5 h, 10 µM of 61.7

---

Assay: in vitro
Settings: human, hela cells, % viability
experimental endpoint: viability at 28.5 h, 10 µM (%)
Supply the numeric figure in %, leaving out any unit text.

Consider the reported viability at 28.5 h, 10 µM for these compounds:
1) CNC(=S)N1CCN(c2nsc3ccccc23)CC1 [CBK288515] : 83.5
2) O=C(CCCc1nc(-c2ccc(Cl)cc2)no1)NCc1cccnc1 [CBK269415] : 90.4
3) Cc1ccc(C2(O)CCN(CCNC(=O)c3cccs3)CC2)cc1 [CBK283322] : 87.8

CS(=O)(=O)Nc1ccc(C(=O)Nc2ccc(S(=O)(=O)Nc3nccs3)cc2)cc1 [CBK267856] has a reported viability at 28.5 h, 10 µM of 97.3

CCCC/C=C/c1nccnc1NCc1ccncc1 [CBK037500] has a reported viability at 28.5 h, 10 µM of 108

---

Below, each of the compounds is paired with its reported viability at 28.5 h, 10 µM value.
Assay: in vitro
Settings: human, hela cells, % viability
Supply the numeric figure in %, leaving out any unit text.

Consider the reported viability at 28.5 h, 10 µM for these compounds:
1. CCOC(=O)C1CCCN(CCC(=O)Nc2cccc(F)c2)C1 (stereo not shown) [CBK264275C] : 107
2. O=C(Nc1nc(-c2ccncc2)cs1)C1COc2ccccc2O1 (stereo not shown) : 96.7
3. CCCc1n[nH]c(C(C)C)c1C(=O)OCC : 98.7
4. CCOc1ccc(NC(=O)NC(=O)C2CCN(C(C)=O)CC2)cc1 : 119
5. Cc1cccc(NC2(C(F)(F)F)N=C(c3ccccc3)NC2=O)n1 (stereo not shown) : 92.9

O=C(C1CCC1)N1CCCC1c1nnc(-c2ccsc2)o1 (stereo not shown) has a reported viability at 28.5 h, 10 µM of 101

---

Assay: in vitro
Settings: human, hela cells, % viability
experimental endpoint: viability at 28.5 h, 10 µM (%)
Supply the numeric figure in %, leaving out any unit text.

1) O=C(O)CS(=O)(=O)c1ccccc1C(=O)O : 98.9
2) CCCC/C=C/c1cncc(N2CCN(Cc3ccccn3)CC2)n1 : 93.4
3) COc1ccccc1-c1ccc(CC2(C(=O)NCc3cccc(F)c3)CCOCC2)cc1 : 92.6
4) O=C(CCCN1C(=O)c2ccccc2C1=O)Nc1ccc(C(=O)O)cc1 : 94.2

Cc1nn(Cc2cccc(C(N)=O)c2)c(C)c1Br has a reported viability at 28.5 h, 10 µM of 86.9

---

Below, each of the compounds is paired with its reported viability at 28.5 h, 10 µM value.
Assay: in vitro
Details: human, hela cells, % viability
Supply the numeric figure in %, leaving out any unit text.

Consider the reported viability at 28.5 h, 10 µM for these compounds:
1. CCn1cc(CN2CCCCCC2c2cc(C)no2)c(C)n1 (stereo not drawn) : 95.6
2. Cc1cc(NC(=O)c2cc3ccccc3oc2=O)nc2c1c(=O)oc1ccccc12 : 100
3. Cc1cc(C2CCCN2C(=O)c2cnn3c(C)cc(C)nc23)on1 (stereo not drawn) : 109
4. Cc1cc2c(o1)c1cnn(CC(=O)N3CCC(C)CC3)c(=O)c1n2C : 83.9
5. CN1CCC2CN(CCCC(c3ccc(F)cc3)c3ccc(F)cc3)CCN2C1=O (stereo not drawn) [CBK024865C] : 89.9

Cc1nn2cc(-c3n[nH]cc3[N+](=O)[O-])cnc2c1C(=O)O has a reported viability at 28.5 h, 10 µM of 98.3

NCCN(C(=O)CCc1cc(C(F)(F)F)cc(C(F)(F)F)c1)c1ccc2c(c1)OCO2 [CBK000701T] has a reported viability at 28.5 h, 10 µM of 105

Oc1ccc(Cn2c(-c3ccc(O)cc3)nc3ccccc32)cc1 has a reported viability at 28.5 h, 10 µM of 90.3

C=C(C)Cn1c(Cc2ccccc2)nnc1SC(C)C has a reported viability at 28.5 h, 10 µM of 92

---

Below, each of the compounds is paired with its reported viability at 28.5 h, 10 µM value.
Test: in vitro
Details: human, hela cells, % viability
Supply the numeric figure in %, leaving out any unit text.

1) O=C(c1ccccc1F)N1CCC(O)(c2cccnc2F)CC1 : 97.1
2) FC(F)(F)c1cc(-c2cc(N3CCN(c4ccccn4)CC3)ncn2)cc(C(F)(F)F)c1 : 94.5
3) Cc1nc2n(n1)C(C(=O)Nc1ccc(C)c(C)c1)CC(=O)N2 (stereo not drawn) : 105
4) COC(=O)Cc1ccc(NC(=S)Nc2ccc(N3CCOCC3)cc2)cc1 : 87.4

O=C(c1ccc2ccccc2c1)N1CCC2(CC1)CN(Cc1ccccc1)CCO2 [CBK161118A] has a reported viability at 28.5 h, 10 µM of 94.1

COc1cnc(-c2cnn(C)c2)c(NC(=O)C2CC2)n1 has a reported viability at 28.5 h, 10 µM of 104

C=CCN(c1ccc(C(=O)O)cc1)S(=O)(=O)c1ccc(/C=C/C(=O)O)cc1 has a reported viability at 28.5 h, 10 µM of 95.8

COc1ccc(C2(C(=O)NCc3cnc(C)cn3)CC2)cc1 has a reported viability at 28.5 h, 10 µM of 98.5

CCN(CC)S(=O)(=O)c1ccc(Cl)c(C(=O)Oc2cccc3cccnc23)c1 has a reported viability at 28.5 h, 10 µM of 118

---

Test: in vitro
Conditions: human, hela cells, % viability
experimental endpoint: viability at 28.5 h, 10 µM

O=C(N[C@@H](Cn1cc(Cl)c(=O)[nH]c1=O)C(=O)O)c1cccc(F)c1 [CBK289650] has a reported viability at 28.5 h, 10 µM of 118%

Cn1nc(C2CCN(C(=O)c3ccccc3F)CC2)c2cccnc21 [CBK285019] has a reported viability at 28.5 h, 10 µM of 106%

O=C(Cc1ccncc1)NC1Cc2ccccc2C1 [CBK200351] has a reported viability at 28.5 h, 10 µM of 94.1%
